Biological target: T1, SNTA1, Q13424
T1 sequence (Q13424 82-180, limits assumed, looked up): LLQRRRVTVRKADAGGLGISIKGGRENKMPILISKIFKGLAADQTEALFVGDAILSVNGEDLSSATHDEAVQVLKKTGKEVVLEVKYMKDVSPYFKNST
Assay: holdup assay
Parameters: key: below the threshold = too weak to quantify, mostly under pKd 3.1 to 4
Settings: plain residues with an end cap or a label only (N-terminal biotin on a linker: ado-ado)
PARAMETER MEASURED: pKd
Give the value as a plain number.

# pKd of NIAESLESLV [PTPRZ1, P23471] = 4.51

# pKd of DPAESMESLV [PTPRG, P23470] = 4.46

# pKd of TNSRHGETTV [FZD2, Q14332] = 4.64

# pKd of KPGKGSETVV [FZD4, Q9ULV1] = 4.6

# pKd of GIKKITSTAL [RPS6KA3, P51812] = 3.94

# pKd of RDPPAEWTRV [PTPN18, Q99952] = 4.39

# pKd of PTPDLPQTRV [KLHDC7A, Q5VTJ3] = 4.81

# pKd of DDASLPVSDV [PLEKHA1, Q9HB21] = 4.44

# pKd of ELSATVTTDC [TRIP6, Q15654] = 3.92
